- Tested system: calcineurin (Homo sapiens, UniProt P62937+P63098+Q08209)
- Assay text: Calcineurin Phosphatase (CaN) Assay
- Experimental context: in the presence of CypA, 1:1 complex of inhibitor with CypA
Measurement label: IC50

In: Please report the recorded IC50 for CCC[C@@H]1C(=O)N(C)[C@@H](CC(C)C)C(=O)N[C@H](C(C)C)C(=O)N(C)[C@H](CC(C)C)C(=O)N[C@H](C)C(=O)N[C@@H](C)C(=O)N(C)[C@H](CC(C)C)C(=O)N(C)[C@H](CC(C)C)C(=O)N(C)[C@H](C(C)C)C(=O)N(C)[C@H]([C@@H]2OCC[C@H]2C)C(=O)N[C@H](CC)C(=O)N1C .
Out: > 10 µM
